# Tested on: HCT116 (colorectal carcinoma, K Ras G13D) cells
# Method description: Cell proliferation (Alamar Blue) assay, HCT116
# Type: cell-based, human
# Condition context: Homo sapiens, HCT-116, HCT116 cells
Parameter measured: IC50

> print(dat)
                                    compound                         target.under.test  recorded.result
 1  Cc1cnc(Nc2ccc3c(c2)OC(F)(F)O3)nc1-n1ccc(C(=O)NC(CO)c2ccccc2)c1 (stereo not shown)  HCT116 (colorectal carcinoma, K Ras G13D) cells   500 to 2500 nM
 2  Cc1cnc(NC2CCOC2)cc1-n1ccc(C(=O)NC(CO)c2cccc(Cl)c2)c1 (stereo not shown)  HCT116 (colorectal carcinoma, K Ras G13D) cells        > 2500 nM
 3  O=C(Nc1cnn(-c2ccnc(Nc3cccnc3)n2)c1)N[C@H](CO)c1cccc(Cl)c1  HCT116 (colorectal carcinoma, K Ras G13D) cells        > 2500 nM
 4  Cc1cnc(N[C@H]2CCOC2)nc1-n1ccc(C(=O)NC(CO)c2ccc(F)cc2)c1 (stereo partly shown)  HCT116 (colorectal carcinoma, K Ras G13D) cells        > 2500 nM
 5  Cc1cnc(NC2COC2)nc1-n1cnc(C(=O)N[C@H](CN)c2cccc(Cl)c2)c1  HCT116 (colorectal carcinoma, K Ras G13D) cells         ≤ 100 nM
 6  CC[C@H](CO)Nc1ncc(C)c(-n2ccc(C(=O)NC(CO)c3cccc(Cl)c3)c2)n1 (stereo partly shown)  HCT116 (colorectal carcinoma, K Ras G13D) cells        > 2500 nM
 7  Cc1cnc(NC2CCOCC2)nc1-n1cnc(C(=O)NCc2ccc(Cl)cc2CO)c1  HCT116 (colorectal carcinoma, K Ras G13D) cells    250 to 500 nM
 8  Cc1cccc(C(CO)NC(=O)c2ccn(-c3nc(N[C@H]4CCOC4)ncc3C)c2)c1 (stereo partly shown)  HCT116 (colorectal carcinoma, K Ras G13D) cells   500 to 2500 nM
 9  COc1cnc(Nc2ccc(F)cc2Cl)nc1-n1ccc(C(=O)NC(CO)c2ccccc2)c1 (stereo not shown)  HCT116 (colorectal carcinoma, K Ras G13D) cells        > 2500 nM
10  Cc1cnc(NC2CCOCC2)nc1-n1cnc(C(=O)NCc2sccc2CO)c1  HCT116 (colorectal carcinoma, K Ras G13D) cells   500 to 2500 nM
11  Cc1cnc(Nc2ccc(F)c(C(=O)N(C)C)c2)nc1-n1ccc(C(=O)NC(CO)c2cccc(Cl)c2)c1 (stereo not shown)  HCT116 (colorectal carcinoma, K Ras G13D) cells   500 to 2500 nM
12  CC[C@@H](CO)Nc1cc(-n2ccc(C(=O)NC(CO)c3ccccc3)c2)c(C)cn1 (stereo partly shown)  HCT116 (colorectal carcinoma, K Ras G13D) cells        > 2500 nM
13  Cc1cnc(NC2CC(F)(F)C2)nc1-n1cnc(C(=O)N[C@@H](CN)c2cc(F)cc(Cl)c2)c1  HCT116 (colorectal carcinoma, K Ras G13D) cells        > 2500 nM
14  Cc1cnc(NC2CCOCC2)nc1-n1cnc(C(=O)N[C@H](CN(C)C)c2cccc(Cl)c2)c1  HCT116 (colorectal carcinoma, K Ras G13D) cells   500 to 2500 nM
15  CC[C@@H](CO)Nc1ncc(C)c(-n2ccc(C(=O)NC(CO)c3cccc(Cl)c3)c2)n1 (stereo partly shown)  HCT116 (colorectal carcinoma, K Ras G13D) cells   500 to 2500 nM
16  Cc1cnc(Nc2ccc3c(c2)OC(F)(F)O3)nc1-n1ccc(C(=O)N[C@H](CO)c2ccc(F)c(Cl)c2)c1  HCT116 (colorectal carcinoma, K Ras G13D) cells   500 to 2500 nM
